# Tested on: HCC-15
# assay-details: relative viability (nuclei count vs DMSO), 5 days (fraction); higher = more cells survive
# measurement-parameters: first compound 0.8 µM
Reported relative viability values for the following compounds.

# example entries with known answers
>  <compound>
Nc1cccc2c1CN(C1CCC(=O)NC1=O)C2=O (stereo not drawn) [Lenalidomide] + CC(=O)c1c(C)c2cnc(Nc3ccc(N4CCNCC4)cn3)nc2n(C2CCCC2)c1=O [Palbociclib] (partner 0.5 µM)

>  <assayed-system>
HCC-15

>  <relative viability>
0.683

$$$$
>  <compound>
Nc1cccc2c1CN(C1CCC(=O)NC1=O)C2=O (stereo not drawn) [Lenalidomide] + O=C(CCCCCCC(=O)Nc1ccccc1)NO [Vorinostat] (partner 1 µM)

>  <assayed-system>
HCC-15

>  <relative viability>
0.855

$$$$

# input for lookup
Query :: Lab note: record relative viability of Nc1cccc2c1CN(C1CCC(=O)NC1=O)C2=O (stereo not drawn) [Lenalidomide] + CCNC(=O)c1noc(-c2cc(C(C)C)c(O)cc2O)c1-c1ccc(CN2CCOCC2)cc1 [Luminespib] (partner 0.01 µM) tested on HCC-15.
Result :: 0.303

* * *

Reported relative viability values for the following compounds.
# Tested on: H3255
# assay-details: relative viability (nuclei count vs DMSO), 5 days (fraction); higher = more cells survive
# measurement-parameters: first compound 0.06325 µM
Please give the numeric answer without any surrounding text.

# example entries with known answers
>  <compound>
CCNC(=O)c1noc(-c2cc(C(C)C)c(O)cc2O)c1-c1ccc(CN2CCOCC2)cc1 [Luminespib] + CC1(C)CCC(c2ccc(Cl)cc2)=C(CN2CCN(c3ccc(C(=O)NS(=O)(=O)c4ccc(N[C@H](CCN5CCOCC5)CSc5ccccc5)c(S(=O)(=O)C(F)(F)F)c4)cc3)CC2)C1 [Navitoclax] (partner 0.5 µM)

>  <relative viability>
0.536

$$$$
>  <compound>
CCNC(=O)c1noc(-c2cc(C(C)C)c(O)cc2O)c1-c1ccc(CN2CCOCC2)cc1 [Luminespib] + Nc1ncn([C@H]2C[C@H](O)[C@@H](CO)O2)c(=O)n1 [Decitabine] (partner 2 µM)

>  <relative viability>
0.425

$$$$

Query :: Provide one value: measured relative viability of CCNC(=O)c1noc(-c2cc(C(C)C)c(O)cc2O)c1-c1ccc(CN2CCOCC2)cc1 [Luminespib] + C[C@@H](Oc1cc(-c2cnn(C3CCNCC3)c2)cnc1N)c1c(Cl)ccc(F)c1Cl [Crizotinib] (partner 1 µM)
Result :: 0.621

Query :: Provide one value: measured relative viability of CCNC(=O)c1noc(-c2cc(C(C)C)c(O)cc2O)c1-c1ccc(CN2CCOCC2)cc1 [Luminespib] + Cc1cc(Nc2cc(N3CCN(C)CC3)nc(Sc3ccc(NC(=O)C4CC4)cc3)n2)n[nH]1 [Tozasertib] (partner 0.1 µM)
Result :: 0.7

* * *

# System: NCI-H2085
# assay-details: relative viability (nuclei count vs DMSO), 5 days (fraction); higher = more cells survive
# measurement-parameters: first compound 0.253 µM
outcome-measure: relative viability
Please give the numeric answer without any surrounding text.

>  <compound>
Nc1cccc2c1CN(C1CCC(=O)NC1=O)C2=O (stereo not drawn) [Lenalidomide] + C[C@]1(O)C[C@@H](c2nc(-c3ccc4ccc(-c5ccccc5)nc4c3)c3c(N)nccn32)C1 [Linsitinib] (partner 1 µM)

>  <relative viability>
0.876

$$$$
>  <compound>
Nc1cccc2c1CN(C1CCC(=O)NC1=O)C2=O (stereo not drawn) [Lenalidomide] + O=C(CCCCCCC(=O)Nc1ccccc1)NO [Vorinostat] (partner 1 µM)

>  <relative viability>
0.826

$$$$
>  <compound>
Nc1cccc2c1CN(C1CCC(=O)NC1=O)C2=O (stereo not drawn) [Lenalidomide] + COc1cccc2cc(-c3nc([C@H]4CC[C@H](C(=O)O)CC4)n4ncnc(N)c34)[nH]c12 [OSI-027] (partner 0.5 µM)

>  <relative viability>
0.818

$$$$
>  <compound>
Nc1cccc2c1CN(C1CCC(=O)NC1=O)C2=O (stereo not drawn) [Lenalidomide] + CC1(C)CCC(c2ccc(Cl)cc2)=C(CN2CCN(c3ccc(C(=O)NS(=O)(=O)c4ccc(N[C@H](CCN5CCOCC5)CSc5ccccc5)c(S(=O)(=O)C(F)(F)F)c4)cc3)CC2)C1 [Navitoclax] (partner 0.5 µM)

>  <relative viability>
1.25

$$$$
>  <compound>
Nc1cccc2c1CN(C1CCC(=O)NC1=O)C2=O (stereo not drawn) [Lenalidomide] + Cc1nc(Nc2ncc(C(=O)Nc3c(C)cccc3Cl)s2)cc(N2CCN(CCO)CC2)n1 [Dasatinib] (partner 0.075 µM)

>  <relative viability>
0.253

$$$$

Query :: Provide one value: measured relative viability of Nc1cccc2c1CN(C1CCC(=O)NC1=O)C2=O (stereo not drawn) [Lenalidomide] + CC(C)C[C@H](NC(=O)[C@H](Cc1ccccc1)NC(=O)c1cnccn1)B(O)O [Bortezomib] (partner 0.002 µM)
Result :: 1.05

Query :: Provide one value: measured relative viability of Nc1cccc2c1CN(C1CCC(=O)NC1=O)C2=O (stereo not drawn) [Lenalidomide] + Cc1nc(NC(=O)N2CCC[C@H]2C(N)=O)sc1-c1ccnc(C(C)(C)C(F)(F)F)c1 [Alpelisib] (partner 2 µM)
Result :: 1.01

Query :: Provide one value: measured relative viability of Nc1cccc2c1CN(C1CCC(=O)NC1=O)C2=O (stereo not drawn) [Lenalidomide] + C[C@@H](Oc1cc(-c2cnn(C3CCNCC3)c2)cnc1N)c1c(Cl)ccc(F)c1Cl [Crizotinib] (partner 1 µM)
Result :: 0.866
